Every entry's value here was drawn from patent US20260250381A1.

# TARGET UNDER TEST: T1, human TREM2 (human) (UniProt Q9NZC2)
# T1 sequence (looked up): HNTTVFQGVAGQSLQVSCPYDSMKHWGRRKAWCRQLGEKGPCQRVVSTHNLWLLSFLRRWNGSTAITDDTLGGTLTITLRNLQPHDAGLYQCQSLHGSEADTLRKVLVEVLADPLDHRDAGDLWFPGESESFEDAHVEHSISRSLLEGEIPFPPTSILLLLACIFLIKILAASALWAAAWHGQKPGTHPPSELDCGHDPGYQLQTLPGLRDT
# TEST PROTOCOL: 1st screen, 110 nM Ab
Please go through the items and note down their Binding Signal (fold over 6E7 parental antibody).
Report as a plain number; the unit fold is understood.

I am curious: what Binding Signal (fold over 6E7 parental antibody) value has been reported for 6E7 variant V43 (antibody, V domains shown) VH: EVQLVQSGAEVKKPGESLKISCKGSGYSFTSYWIAWVRQMPGKGLEWMGIIYPGDSGTRYSPSFQGQVTISADKSISTAYLQWSSLKASDTAMYFCARQRTFYYDSSDYFDYWGQGTLVTVSS VL: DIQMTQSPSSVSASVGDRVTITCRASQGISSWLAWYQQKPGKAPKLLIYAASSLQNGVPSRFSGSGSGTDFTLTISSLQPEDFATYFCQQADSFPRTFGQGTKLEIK ?
0.2

Likewise for 6E7 variant V80 (antibody, V domains shown) VH: EVQLVQSGAEVKKPGESLKISCKGSGYSFTSYWIAWVRQMPGKGLEWMGIIYPGDSDTRYSPSFQGQVTISADKSISTAYLQWSSLKASDTAMYFCARQRNFYYDSSDYFDYWGQGTLVTVSS VL: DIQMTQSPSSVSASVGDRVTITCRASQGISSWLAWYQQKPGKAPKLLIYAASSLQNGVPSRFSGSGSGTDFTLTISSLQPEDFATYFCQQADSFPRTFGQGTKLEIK ?
0.59

Likewise for 6E7 variant V94 (antibody, V domains shown) VH: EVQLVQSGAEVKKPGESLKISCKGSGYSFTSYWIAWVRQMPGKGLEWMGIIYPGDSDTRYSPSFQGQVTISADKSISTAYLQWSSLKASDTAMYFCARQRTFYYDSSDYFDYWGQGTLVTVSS VL: DIQMTQSPSSVSASVGDRVTITCRASQGISSWLAWYQQKPGKAPKLLIYAAASLQNGVPSRFSGSGSGTDFTLTISSLQPEDFATYFCQQADSFPRTFGQGTKLEIK ?
0.31
